# Protocol Details: Single-dose pharmacokinetics of inhaled voriconazole in mice
# Condition Notes: male, ICR, mouse, plasma, inhaled or intranasal, Cmax Plasma, Large Mice (high flow rate, 5 L/min); single dose
Reported Endpoint: Cmax (ng/mL)
The reply should be a number in ng/mL, with the unit left off.

Recorded Cmax for CC(c1ncncc1F)C(O)(Cn1cncn1)c1ccc(F)cc1F (stereo not shown) , please?
1180

====

# Protocol Details: Single-dose pharmacokinetics of inhaled voriconazole in mice
# Condition Notes: male, ICR, mouse, plasma, inhaled or intranasal, Blood Cmax, single-dose
Reported Endpoint: Cmax (ng/mL)
Report the figure in ng/mL without appending any unit label.

Recorded Cmax for CC(c1ncncc1F)C(O)(Cn1cncn1)c1ccc(F)cc1F (stereo not shown) [Voriconazole] , please?
7090

====

# Protocol Details: Single-dose pharmacokinetics of inhaled voriconazole in mice
# Condition Notes: male, ICR, mouse, plasma, inhaled or intranasal, Tmax Plasma, Small Mice (low flow rate, 1 L/min); single dose, 20 minute nebulization
Reported Endpoint: Tmax (min)
Kindly provide the numeric value in min only, without the unit symbol.

Return reported Tmax; argument: CC(c1ncncc1F)C(O)(Cn1cncn1)c1ccc(F)cc1F (stereo not shown)
30

====

# Protocol Details: Single-dose pharmacokinetics of inhaled voriconazole in mice
# Condition Notes: male, ICR, mouse, lung, inhaled or intranasal, 6.09 microgram/mL, Tmax Lung, Small Mice (low flow rate, 1 L/min); single dose, 20 minute nebulization
Reported Endpoint: Tmax

Which measured Tmax value corresponds to CC(c1ncncc1F)C(O)(Cn1cncn1)c1ccc(F)cc1F (stereo not shown) [Voriconazole] ?
≤ 30 min

====

# Protocol Details: Aqueous and phase solubility of voriconazole with SAE-CD
# Assay type: physicochemical
# Condition Notes: water with SAE-CD, aqueous with cosolvent or surfactant or cyclodextrin, thermodynamic from solid, Voriconazole (mg/ml) at saturated solubility, SAE-CD 216.3 mg/ml
Reported Endpoint: solubility (mg/mL)
Quick note: give the figure in mg/mL, leave out the unit.

Look at this molecule and give its reported solubility. CC(c1ncncc1F)C(O)(Cn1cncn1)c1ccc(F)cc1F (stereo not shown)
17.3

====

# Protocol Details: Single-dose pharmacokinetics of inhaled voriconazole in mice
# Condition Notes: male, ICR, mouse, lung, inhaled or intranasal, Lung Tmax, summary table
Reported Endpoint: Tmax

Would you kindly share the measured Tmax for CC(c1ncncc1F)C(O)(Cn1cncn1)c1ccc(F)cc1F (stereo not shown) ?
10 to 30 min

====

# Protocol Details: Single-dose pharmacokinetics of inhaled voriconazole in mice
# Condition Notes: male, ICR, mouse, lung, inhaled or intranasal, Tmax Lung, Large Mice (high flow rate, 5 L/min); single dose, 20 minute nebulization
Reported Endpoint: Tmax (min)
Field format: number, assumed min, no unit text.

Requested read-out: Tmax. Entry: CC(c1ncncc1F)C(O)(Cn1cncn1)c1ccc(F)cc1F (stereo not shown) [Voriconazole]
10

====

# Protocol Details: Single-dose pharmacokinetics of inhaled voriconazole in mice
# Condition Notes: male, ICR, mouse, lung, inhaled or intranasal, Tmax Lung, Small Mice (low flow rate, 1 L/min); single dose, 20 minute nebulization
Reported Endpoint: Tmax (min)
Unit min implied. Number only.

What value of Tmax has been reported for the following compound? CC(c1ncncc1F)C(O)(Cn1cncn1)c1ccc(F)cc1F (stereo not shown) [Voriconazole]
30

====

# Protocol Details: Aqueous and phase solubility of voriconazole with SAE-CD
# Format: physicochemical
# Condition Notes: water with SAE-CD, aqueous with cosolvent or surfactant or cyclodextrin, thermodynamic from solid, Voriconazole (mg/ml) at saturated solubility, SAE-CD 43.26 mg/ml as printed (r8)
Reported Endpoint: solubility (mg/mL)
Use mg/mL as the unit, but write only the number.

Quick one: solubility of CC(c1ncncc1F)C(O)(Cn1cncn1)c1ccc(F)cc1F (stereo not shown) ?
35.1

====

# Protocol Details: Single-dose pharmacokinetics of inhaled voriconazole in mice
# Condition Notes: male, ICR, mouse, plasma, inhaled or intranasal, AUC (0-6 hr) Plasma, Small Mice (low flow rate, 1 L/min); single dose
Reported Endpoint: AUC(0-t) (ng·h/mL)
# output: bare number, implied unit ng·h/mL

What value of AUC(0-t) has been recorded for this entry: CC(c1ncncc1F)C(O)(Cn1cncn1)c1ccc(F)cc1F (stereo not shown)
25800

====

# Protocol Details: Single-dose pharmacokinetics of inhaled voriconazole in mice
# Condition Notes: male, ICR, mouse, plasma, inhaled or intranasal, 6.09 microgram/mL, Cmax Plasma, Small Mice (low flow rate, 1 L/min); single dose
Reported Endpoint: Cmax
Number plus unit, in that order.

I would be grateful if you could share the reported Cmax for CC(c1ncncc1F)C(O)(Cn1cncn1)c1ccc(F)cc1F (stereo not shown) [Voriconazole] .
7090 ng/mL

====

# Protocol Details: Single-dose pharmacokinetics of inhaled voriconazole in mice
# Condition Notes: male, ICR, mouse, plasma, inhaled or intranasal, AUC (0-6 hr) Plasma, Large Mice (high flow rate, 5 L/min); single dose
Reported Endpoint: AUC(0-t)
For clarity, give the value followed by its unit.

Param item = CC(c1ncncc1F)C(O)(Cn1cncn1)c1ccc(F)cc1F (stereo not shown) ; retrieve measured AUC(0-t).
2270 ng·h/mL

====

# Protocol Details: Aqueous and phase solubility of voriconazole with SAE-CD
# Type: physicochemical
# Condition Notes: water with SAE-CD, aqueous with cosolvent or surfactant or cyclodextrin, thermodynamic from solid, Voriconazole (mg/ml) at saturated solubility, SAE-CD 108.15 mg/ml
Reported Endpoint: solubility (µg/mL)
Quick reminder: number only, in µg/mL, skip the unit.

Looking for the measured solubility of CC(c1ncncc1F)C(O)(Cn1cncn1)c1ccc(F)cc1F (stereo not shown) , can you help?
8390
